# System: vancomycin-susceptible enterococci
# protocol_summary: broth micro-dilution, mean geometric MIC
# Assay type: cell-based, Enterococcus faecium and Enterococcus faecalis
# details: enterococci, 24-hour incubation
readout_name: mean geometric MIC, Vancomycin Sensitive Strains (mg/L)
Provide only the numeric value, understood in mg/L.

QUERY: mean geometric MIC, Vancomycin Sensitive Strains of CC(C)CC(C(=O)NC1C(=O)NC(CC(N)=O)C(=O)NC2C(=O)NC3C(=O)NC(C(=O)NC(C(=O)O)c4cc(O)cc(O)c4-c4cc3ccc4O)C(OC3CC(C)(N)C(O)C(C)O3)c3ccc(c(Cl)c3)Oc3cc2cc(c3OC2OC(CO)C(O)C(O)C2OC2CC(C)(NCc3ccc(Oc4ccccc4)cc3)C(O)C(C)O2)Oc2ccc(cc2Cl)C1O)N(C)Cc1ccc(Oc2ccccc2)cc1 (stereo not shown) on vancomycin-susceptible enterococci?
RESULT: 0.29
